- Test system: Salmonella typhimurium tester strains TA97a, TA98, TA100, TA102, TA1537 and TA1538
- condition description: 5 µg/plate
assay metric: revertant colonies, TA1538 +S9
Just the number, please.

>>> experimental_result("Cc1oc2c(C)c3oc(=O)cc(C)c3cc2c1COCCN")
2
>>> experimental_result("Cc1oc2c(C)c3oc(=O)cc(C)c3cc2c1CNCCN")
21
>>> experimental_result("Cc1oc2c(C)c3oc(=O)cc(C)c3cc2c1CNCCCCN")
0

Prompt: Recorded revertant colonies, TA1538 +S9 for Cc1oc2c(C)c3oc(=O)cc(C)c3cc2c1COCCCN with Salmonella typhimurium tester strains TA97a, TA98, TA100, TA102, TA1537 and TA1538, please?
Response: 7

Prompt: Repeat with Cc1oc2c(C)c3oc(=O)cc(C)c3cc2c1CCN
Response: 1

Prompt: Repeat with Cc1oc2c(C)c3oc(=O)cc(C)c3cc2c1CN [AMT, 4'-Aminomethyl-4,5',8-trimethylpsoralen, reference compound]
Response: 177

Value source: patent EP0840781B1
